System: HEK293
Assay: Antiproliferative activity against human HEK293 cells by MTT assay
Format: cell-based
Exercise: for every item that follows, state its recorded IC50.

Some compounds with known IC50 results, for comparison:
item smiles | IC50
CCCn1cnc2c(oc3nc(-c4cccs4)cc(C(F)(F)F)c32)c1=O | > 220 µg/mL
CCCNC(=O)c1oc2nc(-c3cccs3)cc(C(F)(F)F)c2c1N | 64 µM
O=c1c2oc3nc(-c4cccs4)cc(C(F)(F)F)c3c2ncn1/N=C/c1ccc(Cl)cc1 | 102 µM
Nc1c(C(=O)N/N=C/c2ccccc2)oc2nc(-c3cccs3)cc(C(F)(F)F)c12 | 72 µM
O=c1[nH]cc(F)c(=O)[nH]1 | 19.6 µM

Provide each entry's IC50 from the list below.
1. Nc1c(C(=O)N/N=C/c2ccc(Br)cc2)oc2nc(-c3cccs3)cc(C(F)(F)F)c12
2. Cc1nc2c(oc3nc(-c4ccccc4)cc(C(F)(F)F)c32)c(=O)n1C1CCCC1
3. CCCn1cnc2c(oc3nc(-c4ccccc4)cc(C(F)(F)F)c32)c1=O
4. O=c1c2oc3nc(-c4ccccc4)cc(C(F)(F)F)c3c2ncn1/N=C/c1ccccc1
5. Cc1nc2c(oc3nc(-c4cccs4)cc(C(F)(F)F)c32)c(=O)n1C

86 µM
96 µM
90 µM
> 220 µg/mL
> 220 µg/mL

---

Tested on: HepG2
Experiment: Antiproliferative activity against human HepG2 cells by MTT assay
Assay type: functional, cell-based
metric name: IC50

item smiles | IC50
O=c1c2oc3nc(-c4cccs4)cc(C(F)(F)F)c3c2ncn1/N=C/c1ccccc1 | > 220 µg/mL
Nc1c(C(=O)N/N=C/c2ccccc2)oc2nc(-c3cccs3)cc(C(F)(F)F)c12 | 9.9 µM
CCn1c(C)nc2c(oc3nc(-c4ccccc4)cc(C(F)(F)F)c32)c1=O | > 220 µg/mL
CCCNC(=O)c1oc2nc(-c3ccccc3)cc(C(F)(F)F)c2c1N | 37.4 µM
O=c1c2oc3nc(-c4ccccc4)cc(C(F)(F)F)c3c2ncn1C1CCCC1 | > 220 µg/mL
Nc1c(C(=O)NC2CCCC2)oc2nc(-c3cccs3)cc(C(F)(F)F)c12 | 20.8 µM
Cc1nc2c(oc3nc(-c4cccs4)cc(C(F)(F)F)c32)c(=O)n1C | > 220 µg/mL
Nc1c(C(=O)N/N=C/c2ccc(Cl)cc2)oc2nc(-c3ccccc3)cc(C(F)(F)F)c12 | 12.1 µM

Provide each entry's IC50 from the list below.
1. O=c1[nH]cc(F)c(=O)[nH]1
2. CCCNC(=O)c1oc2nc(-c3cccs3)cc(C(F)(F)F)c2c1N
3. Cc1nc2c(oc3nc(-c4ccccc4)cc(C(F)(F)F)c32)c(=O)n1C1CCCC1
4. Nc1c(C(=O)NC2CCCC2)oc2nc(-c3ccccc3)cc(C(F)(F)F)c12
5. O=c1c2oc3nc(-c4ccccc4)cc(C(F)(F)F)c3c2ncn1/N=C/c1ccc(Cl)cc1
6. Cc1ccc(/C=N/NC(=O)c2oc3nc(-c4cccs4)cc(C(F)(F)F)c3c2N)cc1

1.7 µM
17.2 µM
17.1 µM
32.4 µM
> 220 µg/mL
19.8 µM

---

Exercise: for every item that follows, state its recorded IC50.
Tested on: HeLa
Assay: Antiproliferative activity against human HeLa cells by MTT assay
Format: functional, cell-based
Conditions: read-out: pIC50 (converted)

item smiles | experimental target | IC50
Cn1cnc2c(oc3nc(-c4cccs4)cc(C(F)(F)F)c32)c1=O | HeLa | 50.1 µM
CNC(=O)c1oc2nc(-c3ccccc3)cc(C(F)(F)F)c2c1N | HeLa | 45.7 µM
Nc1c(C(=O)N/N=C/c2ccccc2)oc2nc(-c3cccs3)cc(C(F)(F)F)c12 | HeLa | 11.7 µM

Provide each entry's IC50 from the list below.
1. Nc1c(C(=O)N/N=C/c2ccccc2)oc2nc(-c3ccccc3)cc(C(F)(F)F)c12
2. CCNC(=O)c1oc2nc(-c3ccccc3)cc(C(F)(F)F)c2c1N
3. CCCn1c(C)nc2c(oc3nc(-c4cccs4)cc(C(F)(F)F)c32)c1=O
4. CNC(=O)c1oc2nc(-c3cccs3)cc(C(F)(F)F)c2c1N

13.5 µM
36.3 µM
28.8 µM
15.5 µM

Provide each entry's IC50 from the list below.
1. Cc1ccc(/C=N/NC(=O)c2oc3nc(-c4ccccc4)cc(C(F)(F)F)c3c2N)cc1
2. Cc1nc2c(oc3nc(-c4ccccc4)cc(C(F)(F)F)c32)c(=O)n1C1CCCC1

1: 11.7 µM; 2: 18.2 µM

Please look at CCCNC(=O)c1oc2nc(-c3cccs3)cc(C(F)(F)F)c2c1N and tell me its recorded IC50 on HeLa.
19.1 µM

---

Test system: HEK293
Assay: Antiproliferative activity against human HEK293 cells by MTT assay
Format: cell-based
metric name: IC50 (µM)
One number for each entry, in µM.

Some compounds with known IC50 results, for comparison:
item smiles | experimental target | IC50, µM
CCCNC(=O)c1oc2nc(-c3ccccc3)cc(C(F)(F)F)c2c1N | HEK293 | 81
Nc1c(C(=O)NC2CCCC2)oc2nc(-c3cccs3)cc(C(F)(F)F)c12 | HEK293 | 51
CNC(=O)c1oc2nc(-c3ccccc3)cc(C(F)(F)F)c2c1N | HEK293 | 62
Nc1c(C(=O)N/N=C/c2ccc(Cl)cc2)oc2nc(-c3ccccc3)cc(C(F)(F)F)c12 | HEK293 | 81

Provide each entry's IC50 from the list below.
1. Nc1c(C(=O)NC2CCCC2)oc2nc(-c3ccccc3)cc(C(F)(F)F)c12
2. Nc1c(C(=O)N/N=C/c2ccc(Br)cc2)oc2nc(-c3ccccc3)cc(C(F)(F)F)c12

1. 85
2. 64

---

Test system: HEK293
Test: Antiproliferative activity against human HEK293 cells by MTT assay
Format: cell-based
Exercise: for every item that follows, state its recorded IC50.

Some compounds with known IC50 results, for comparison:
item smiles | IC50
O=c1c2oc3nc(-c4cccs4)cc(C(F)(F)F)c3c2ncn1C1CCCC1 | > 220 µg/mL
CCn1cnc2c(oc3nc(-c4cccs4)cc(C(F)(F)F)c32)c1=O | > 220 µg/mL

Next up:
Item Cc1nc2c(oc3nc(-c4ccccc4)cc(C(F)(F)F)c32)c(=O)n1C : provide IC50
> 220 µg/mL

---

Test system: HeLa
Test: Antiproliferative activity against human HeLa cells by MTT assay
Format: functional, cell-based
Conditions: read-out: IC50
Exercise: for every item that follows, state its recorded IC50.

item smiles | IC50
O=c1c2oc3nc(-c4ccccc4)cc(C(F)(F)F)c3c2ncn1C1CCCC1 | > 220 µg/mL

Provide each entry's IC50 from the list below.
1. Cn1cnc2c(oc3nc(-c4cccs4)cc(C(F)(F)F)c32)c1=O
2. Cn1cnc2c(oc3nc(-c4ccccc4)cc(C(F)(F)F)c32)c1=O

["> 220 µg/mL", "> 220 µg/mL"]

Provide each entry's IC50 from the list below.
1. O=c1c2oc3nc(-c4cccs4)cc(C(F)(F)F)c3c2ncn1/N=C/c1ccc(Cl)cc1
2. Cc1ccc(/C=N/n2cnc3c(oc4nc(-c5ccccc5)cc(C(F)(F)F)c43)c2=O)cc1
3. CCCn1c(C)nc2c(oc3nc(-c4ccccc4)cc(C(F)(F)F)c32)c1=O
4. O=c1c2oc3nc(-c4ccccc4)cc(C(F)(F)F)c3c2ncn1/N=C/c1ccccc1
5. CCn1cnc2c(oc3nc(-c4ccccc4)cc(C(F)(F)F)c32)c1=O
6. O=c1c2oc3nc(-c4cccs4)cc(C(F)(F)F)c3c2ncn1/N=C/c1ccc(Br)cc1

1: > 220 µg/mL; 2: > 220 µg/mL; 3: > 220 µg/mL; 4: > 220 µg/mL; 5: > 220 µg/mL; 6: > 220 µg/mL

Provide each entry's IC50 from the list below.
1. Cc1nc2c(oc3nc(-c4ccccc4)cc(C(F)(F)F)c32)c(=O)n1C
2. O=c1c2oc3nc(-c4ccccc4)cc(C(F)(F)F)c3c2ncn1/N=C/c1ccc(Cl)cc1
3. O=c1c2oc3nc(-c4ccccc4)cc(C(F)(F)F)c3c2ncn1/N=C/c1ccc(Br)cc1
4. CCn1c(C)nc2c(oc3nc(-c4ccccc4)cc(C(F)(F)F)c32)c1=O
5. CCn1cnc2c(oc3nc(-c4cccs4)cc(C(F)(F)F)c32)c1=O

> 220 µg/mL
> 220 µg/mL
> 220 µg/mL
> 220 µg/mL
> 220 µg/mL

Provide each entry's IC50 from the list below.
1. CCCn1cnc2c(oc3nc(-c4cccs4)cc(C(F)(F)F)c32)c1=O
2. Cc1nc2c(oc3nc(-c4cccs4)cc(C(F)(F)F)c32)c(=O)n1C1CCCC1
3. CCCn1cnc2c(oc3nc(-c4ccccc4)cc(C(F)(F)F)c32)c1=O

> 220 µg/mL
> 220 µg/mL
> 220 µg/mL

Provide each entry's IC50 from the list below.
1. Cc1nc2c(oc3nc(-c4cccs4)cc(C(F)(F)F)c32)c(=O)n1C
2. CCn1c(C)nc2c(oc3nc(-c4cccs4)cc(C(F)(F)F)c32)c1=O
3. CNC(=O)c1oc2nc(-c3cccs3)cc(C(F)(F)F)c2c1N
4. Nc1c(C(=O)NC2CCCC2)oc2nc(-c3ccccc3)cc(C(F)(F)F)c12
5. Cc1nc2c(oc3nc(-c4ccccc4)cc(C(F)(F)F)c32)c(=O)n1C1CCCC1
6. Cc1ccc(/C=N/NC(=O)c2oc3nc(-c4cccs4)cc(C(F)(F)F)c3c2N)cc1
7. Nc1c(C(=O)N/N=C/c2ccc(Cl)cc2)oc2nc(-c3cccs3)cc(C(F)(F)F)c12
8. Nc1c(C(=O)N/N=C/c2ccccc2)oc2nc(-c3ccccc3)cc(C(F)(F)F)c12

1: > 220 µg/mL; 2: > 220 µg/mL; 3: 15.6 µM; 4: 25.8 µM; 5: 18.2 µM; 6: 24.4 µM; 7: 8 µM; 8: 13.4 µM

Item CNC(=O)c1oc2nc(-c3ccccc3)cc(C(F)(F)F)c2c1N : provide IC50
40.2 µM
